# Test system: Prunus dulcis
# assay-name: Percent inhibition against Alpha-mannosidase of Almonds at 1 mM
measured-property: inhibition (%)

molecule: CCN(CC)C(=O)c1cc(C2NCC(O)C2O)oc1C (stereo not given)
units: %
readout-number: 31
--
molecule: COC(=O)c1cc(C2NCC(O)C2O)oc1C (stereo not given)
units: %
readout-number: 36
--
molecule: Cc1oc(C2NCC(O)C2O)cc1C(=O)NC(C)C (stereo not given)
units: %
readout-number: 29

1. CCNC(=O)c1cc(C2NCC(O)C2O)oc1C (stereo not given)
2. Cc1oc(C2NCC(O)C2O)cc1C(=O)OC(C)C (stereo not given)
Q) Form: Entry with minimum inhibition (choose one): 1 / 2 Bench note: the answer is the label of the chosen record.
A) 1
(1: 32%, 2: 57%)

* * *

# Organism: Gallus gallus
# assay-name: Inhibitory activity against alpha-N-acetylgalactosaminidase of chicken liver at 1 mM; No inhibition
The source made the active and inactive calls. The rule behind the calls is not given here.
measured-property: inhibition

compound: Cc1oc(C2NCC(O)C2O)cc1CO (centres undefined)
result: inactive

compound: Cc1oc(C2NCC(O)C2O)cc1C(=O)Nc1ccccc1 (centres undefined)
result: inactive

compound: Cc1oc(C2NCC(O)C2O)cc1C(=O)O (centres undefined)
result: inactive

* * *

# subject-of-test: UniProtKB Q58D55
# Sequence (Q58D55 whole entry): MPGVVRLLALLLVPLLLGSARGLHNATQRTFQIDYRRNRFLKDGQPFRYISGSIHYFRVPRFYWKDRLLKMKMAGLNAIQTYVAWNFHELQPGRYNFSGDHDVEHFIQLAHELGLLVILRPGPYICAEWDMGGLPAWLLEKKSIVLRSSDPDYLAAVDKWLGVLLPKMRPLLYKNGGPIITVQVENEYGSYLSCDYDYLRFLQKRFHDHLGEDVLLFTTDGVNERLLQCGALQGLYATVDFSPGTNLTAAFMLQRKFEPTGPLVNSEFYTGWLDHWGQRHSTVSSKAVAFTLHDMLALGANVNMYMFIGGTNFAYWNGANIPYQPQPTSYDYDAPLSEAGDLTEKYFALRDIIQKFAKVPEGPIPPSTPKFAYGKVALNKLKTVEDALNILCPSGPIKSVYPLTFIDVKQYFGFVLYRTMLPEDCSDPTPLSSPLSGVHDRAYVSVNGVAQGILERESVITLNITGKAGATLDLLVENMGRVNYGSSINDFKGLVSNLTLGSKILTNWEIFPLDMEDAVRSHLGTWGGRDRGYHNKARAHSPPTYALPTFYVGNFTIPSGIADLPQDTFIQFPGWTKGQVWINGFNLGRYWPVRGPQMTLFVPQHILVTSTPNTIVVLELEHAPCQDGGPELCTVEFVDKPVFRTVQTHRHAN
measured-property: IC50 (µM)

compound: COC(=O)c1cc(C2NCC(O)C2O)oc1C (configuration not stated)
units: µM
IC50: 800
--
compound: Cc1oc(C2NCC(O)C2O)cc1C(=O)OC(C)C (configuration not stated)
units: µM
IC50: 640

* * *

# System: isomaltase (Saccharomyces cerevisiae)
# assay-name: Inhibitory activity against isomaltase of baker yeast at 1 mM; No inhibition
Calls of active or inactive are those of the source. The calls are words filed in the database; no cut-off is given here.

compound: Cc1oc(C2NCC(O)C2O)cc1C(=O)Nc1ccccc1 (centres undefined)
subject-of-test: isomaltase (Saccharomyces cerevisiae)
inhibition: inactive
//
compound: Cc1oc(C2NCC(O)C2O)cc1CO (centres undefined)
subject-of-test: isomaltase (Saccharomyces cerevisiae)
inhibition: inactive
//
compound: Cc1oc(C2NCC(O)C2O)cc1C(=O)O (centres undefined)
subject-of-test: isomaltase (Saccharomyces cerevisiae)
inhibition: inactive
